These data points were gathered from paper PMC8557888.

Answer each item with its documented Equilibrium level reached (intracellular concentration).
# Tested on: THP-1 cells
# testContext: human, 48 h, 5 μg/ml

Consider the following illustrative entries.
>>> reported("COc1nc2ccc(Br)cc2cc1[C@@H](c1ccccc1)[C@@](O)(CCN(C)C)c1cccc2ccccc12")
"4,410 ± 190.9 ng/ml"
>>> reported("COc1c(N2C[C@@H]3CCCN[C@@H]3C2)c(F)cc2c(=O)c(C(=O)O)cn(C3CC3)c12")
"3,374 ± 48.7 ng/ml"

In the following, a different compound is considered.
(Q) Which value of Equilibrium level reached (intracellular concentration) has been reported for CO[C@H]1/C=C/O[C@@]2(C)Oc3c(C)c(O)c4c(O)c(c(/C=N/N5CCN(C)CC5)c(O)c4c3C2=O)NC(=O)/C(C)=C\C=C\[C@H](C)[C@H](O)[C@@H](C)[C@@H](O)[C@@H](C)[C@H](OC(C)=O)[C@@H]1C in the records?
(A) 3,050 ± 62.9 ng/ml
